Measured values drawn from patent US20250230141A1 for this set.

What EC50 was measured for each of the following?
target: human orexin-2 receptor (OX2R) (Homo sapiens, UniProt O43614); test: Human OX2R IP1 assay; conditions: T-Rex CHO cells stably overexpressing human OX2R; IP1 accumulation, 1 hr at 37 degrees C; mean EC50

The following compounds have reported results that may help.
INSERT INTO assay_data (compound, assay_result) VALUES
  ('Cn1ncc2cc([C@H]3CC[C@@H](OC[C@@H]4CN(C(=O)C5CCOC5)CC[C@@H]4NS(=O)(=O)C(F)(F)F)CC3)ccc21 (stereo partly shown) [Compound 33]', '1 to 10 nM'),
  ('Cn1cnc2ccc([C@H]3CC[C@@H](OC[C@@H]4CN(c5ccccn5)CC[C@@H]4NS(C)(=O)=O)CC3)cc21 [Compound 9]', '1 to 10 nM'),
  ('Cn1ncc2cc([C@H]3CC[C@@H](OC[C@@H]4CN(C(=O)Cc5ncccn5)CC[C@@H]4NS(C)(=O)=O)CC3)ccc21 [Compound 50]', '> 10 nM'),
  ('Cn1cnc2ccc(C3CCC(OC[C@@H]4CN(c5ccccn5)CC[C@@H]4NS(C)(=O)=O)CC3)cc21 (stereo partly shown) [Compound 63]', '> 10 nM'),
  ('COC(=O)N1CC[C@H](NS(C)(=O)=O)[C@H](CO[C@H]2CC[C@@H](c3ccc4c(cnn4C)c3)CC2)C1 [Compound 12]', '1 to 10 nM'),
  ('CN(C)S(=O)(=O)N[C@H]1CCN(c2cccnn2)C[C@H]1CO[C@H]1CC[C@@H](c2ccc3c(cnn3C)c2)CC1 [Compound 30]', '< 1 nM'),
  ('Cn1ncc2ccc([C@H]3CC[C@H](OC[C@@H]4CN(c5ccccn5)CC[C@@H]4NS(C)(=O)=O)CC3)cc21 [Compound 65]', '> 10 nM'),
  ('Cn1ncc2cc([C@H]3CC[C@@H](OC[C@@H]4CN(c5ccccn5)CC[C@@H]4NS(C)(=O)=O)CC3)ccc21 [Compound 3]', '< 1 nM'),
  ('Cn1ncc2cc([C@H]3CC[C@@H](OC[C@@H]4CN(C(=O)[C@@]5(C)CCOC5)CC[C@@H]4NS(C)(=O)=O)CC3)ccc21 [Compound 28]', '1 to 10 nM');

From here, focus on the item given below.
Recorded result, CS(=O)(=O)N[C@H]1CCN(c2ccccn2)C[C@H]1CO[C@H]1CC[C@@H](c2ccc3[nH]ncc3c2)CC1 [Compound 1] , EC50: < 1 nM

---

What EC50 was measured for each of the following?
Biological target: human orexin-2 receptor (OX2R) (Homo sapiens)
Sequence (O43614 1-444): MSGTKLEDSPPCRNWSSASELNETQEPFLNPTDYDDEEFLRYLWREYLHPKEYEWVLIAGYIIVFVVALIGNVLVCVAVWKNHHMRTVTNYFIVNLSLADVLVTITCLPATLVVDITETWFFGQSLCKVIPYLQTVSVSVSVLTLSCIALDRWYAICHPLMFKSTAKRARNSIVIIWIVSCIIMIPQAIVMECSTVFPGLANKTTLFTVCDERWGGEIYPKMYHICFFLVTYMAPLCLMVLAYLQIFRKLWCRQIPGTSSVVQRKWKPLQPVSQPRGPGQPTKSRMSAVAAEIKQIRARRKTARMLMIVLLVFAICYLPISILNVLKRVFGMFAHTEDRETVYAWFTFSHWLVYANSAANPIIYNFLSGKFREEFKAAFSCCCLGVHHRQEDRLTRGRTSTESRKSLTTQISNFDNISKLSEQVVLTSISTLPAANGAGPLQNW
Test: Human OX2R IP1 assay
Conditions: T-Rex CHO cells stably overexpressing human OX2R; IP1 accumulation, 1 hr at 37 degrees C; mean EC50

The following compounds have reported results that may help.
INSERT INTO assay_data (compound, outcome_measure, assay_result) VALUES
  ('Cn1ncc2cc([C@H]3CC[C@@H](OC[C@@H]4CN(C(=O)C5CCO5)CC[C@@H]4NS(C)(=O)=O)CC3)ccc21 (stereo partly drawn)', 'EC50', '> 10 nM'),
  ('Cn1ncc2cc([C@H]3CC[C@@H](OC[C@@H]4CN(C(=O)[C@@H]5CCOC5)CC[C@@H]4NS(C)(=O)=O)CC3)ccc21', 'EC50', '1 to 10 nM'),
  ('CS(=O)(=O)N[C@H]1CCN(C(=O)C2(F)CCC2)C[C@H]1CO[C@H]1CC[C@@H](c2ccc3[nH]ncc3c2)CC1', 'EC50', '1 to 10 nM');

Provide EC50 for all items below, preserving their order.
1. Cn1ncc2cc([C@H]3CC[C@@H](OC[C@@H]4CN(C(=O)CN5CCOCC5)CC[C@@H]4NS(C)(=O)=O)CC3)ccc21
2. Cn1ncc2cc([C@H]3CC[C@@H](OC[C@@H]4CN(C(=O)C5COC5)CC[C@@H]4NS(C)(=O)=O)CC3)ccc21
3. Cn1ncc2cc([C@H]3CC[C@@H](OC[C@@H]4CN(c5cnccn5)CC[C@@H]4NS(=O)(=O)C(F)(F)F)CC3)ccc21

## Result
1: > 10 nM; 2: > 10 nM; 3: 1 to 10 nM

---

target: human orexin-2 receptor (OX2R) (Homo sapiens, UniProt O43614); assay: Human OX2R IP1 assay; details: T-Rex CHO cells stably overexpressing human OX2R; IP1 accumulation, 1 hr at 37 degrees C; mean EC50
What EC50 was measured for each of the following?

INSERT INTO assay_data (compound, outcome_measure, assay_result) VALUES
  ('Cn1ncc2cc([C@H]3CC[C@@H](OC[C@@H]4CN(C(=O)C5CCOC5)CC[C@@H]4NS(C)(=O)=O)CC3)ccc21 (some centres unmarked) [Compound 60]', 'EC50', '> 10 nM');

Provide EC50 for all items below, preserving their order.
1. Cn1ncc2cc([C@H]3CC[C@@H](OC[C@@H]4CN(c5cccnn5)CC[C@@H]4NS(C)(=O)=O)CC3)ccc21 [Compound 15]
2. CNS(=O)(=O)N[C@H]1CCN(c2cccnn2)C[C@H]1CO[C@H]1CC[C@@H](c2ccc3c(cnn3C)c2)CC1 [Compound 29]

## Result
1: 1 to 10 nM; 2: < 1 nM

Provide EC50 for all items below, preserving their order.
1. Cn1ncc2cc([C@H]3CC[C@@H](OC[C@@H]4CN(C(=O)Cc5ccncn5)CC[C@@H]4NS(C)(=O)=O)CC3)ccc21 [Compound 52]
2. Cn1ncc2cc([C@H]3CC[C@@H](OC[C@@H]4CN(C(=O)N5CCC5)CC[C@@H]4NS(C)(=O)=O)CC3)ccc21 [Compound 23]
3. Cn1ncc2cc([C@H]3CC[C@@H](OC[C@@H]4CN(C(=O)[C@H]5CCOC5)CC[C@@H]4NS(C)(=O)=O)CC3)ccc21 [Compound 62]
4. O=S(=O)(N[C@H]1CCN(c2ccccn2)C[C@H]1CO[C@H]1CC[C@@H](c2ccc3[nH]ncc3c2)CC1)C(F)(F)F [Compound 2]

## Result
> 10 nM
1 to 10 nM
> 10 nM
1 to 10 nM

Provide EC50 for all items below, preserving their order.
1. Cn1ncc2cc([C@H]3CC[C@@H](OC[C@@H]4CN(C(=O)C5CC5)CC[C@@H]4NS(C)(=O)=O)CC3)ccc21 [Compound 18]
2. Cn1cnc2cc([C@H]3CC[C@@H](OC[C@@H]4CN(c5ccccn5)CC[C@@H]4NS(C)(=O)=O)CC3)ccc21 [Compound 8]
3. Cn1ncc2cc([C@H]3CC[C@@H](OC[C@@H]4CN(C(=O)c5cncs5)CC[C@@H]4NS(C)(=O)=O)CC3)ccc21 [Compound 27]
4. Cn1cnc2cc([C@H]3CC[C@@H](OC[C@@H]4CN(C(=O)C5(F)CCC5)CC[C@@H]4NS(C)(=O)=O)CC3)ccc21 [Compound 16]
5. Cn1ncc2cc([C@H]3CC[C@@H](OC[C@@H]4CN(c5cccnn5)CC[C@@H]4NS(=O)(=O)C(F)(F)F)CC3)cc(F)c21 [Compound 26]
6. Cn1ncc2ccc(C3CCC(OC[C@@H]4CN(c5ccccn5)CC[C@@H]4NS(C)(=O)=O)CC3)cc21 (some centres unmarked) [Compound 66]

## Result
1: 1 to 10 nM; 2: 1 to 10 nM; 3: 1 to 10 nM; 4: < 1 nM; 5: 1 to 10 nM; 6: > 10 nM

Provide EC50 for all items below, preserving their order.
1. Cn1ncc2cc([C@H]3CC[C@@H](OC[C@@H]4CN(C(=O)C(C)(C)C)CC[C@@H]4NS(C)(=O)=O)CC3)ccc21 [Compound 22]
2. Cn1ncc2cc([C@H]3CC[C@@H](OC[C@@H]4CN(c5ccccn5)CC[C@@H]4NS(C)(=O)=O)CC3)ncc21 [Compound 7]
3. CC(=O)N1CC[C@H](NS(C)(=O)=O)[C@H](CO[C@H]2CC[C@@H](c3ccc4c(cnn4C)c3)CC2)C1 [Compound 20]
4. CN(C)C(=O)N[C@H]1CCN(c2cccnn2)C[C@H]1CO[C@H]1CC[C@@H](c2ccc3c(cnn3C)c2)CC1 [Compound 58]
5. Cn1ncc2cc([C@H]3CC[C@@H](OC[C@@H]4CN(C(=O)Cc5cnccn5)CC[C@@H]4NS(C)(=O)=O)CC3)ccc21 [Compound 51]
6. Cn1ncc2cc([C@H]3CC[C@@H](OC[C@@H]4CN(c5ccccn5)CC[C@@H]4NS(=O)(=O)C(F)(F)F)CC3)ccc21 [Compound 10]

## Result
1 to 10 nM
> 10 nM
> 10 nM
> 10 nM
> 10 nM
< 1 nM

Provide EC50 for all items below, preserving their order.
1. Cn1cnc2ccc([C@H]3CC[C@@H](OC[C@@H]4CN(C(=O)C5(F)CCC5)CC[C@@H]4NS(C)(=O)=O)CC3)cc21 [Compound 19]
2. COC(=O)N1CC[C@H](NS(C)(=O)=O)[C@H](CO[C@H]2CC[C@@H](c3ccc4[nH]ncc4c3)CC2)C1 [Compound 5]
3. Cn1ncc2cc([C@H]3CC[C@@H](OC[C@@H]4CN(C(=O)C5(F)CCC5)CC[C@@H]4NS(C)(=O)=O)CC3)ccc21 [Compound 11]
4. Cn1ncc2cc([C@H]3CC[C@@H](OC[C@@H]4CN(C(=O)CO)CC[C@@H]4NS(C)(=O)=O)CC3)ccc21 [Compound 48]
5. Cn1ncc2cc([C@H]3CC[C@@H](OC[C@@H]4CN(c5cccnn5)CC[C@@H]4NS(=O)(=O)C(F)(F)F)CC3)ccc21 [Compound 13]
6. Cn1cnc2ccc([C@H]3CC[C@H](OC[C@@H]4CN(c5ccccn5)CC[C@@H]4NS(C)(=O)=O)CC3)cc21 [Compound 64]
7. CN(C)S(=O)(=O)N[C@H]1CCN(C(=O)[C@@H]2CCOC2)C[C@H]1CO[C@H]1CC[C@@H](c2ccc3c(cnn3C)c2)CC1 [Compound 31]

## Result
1. 1 to 10 nM
2. 1 to 10 nM
3. < 1 nM
4. > 10 nM
5. < 1 nM
6. 1 to 10 nM
7. 1 to 10 nM
